Pre-emergence action against AVEFA in % reference
# Test system: Avena fatua (AVEFA)
# assay-explanation: Pre-emergence herbicidal action against AVEFA
# Type: in vivo
# experimental-conditions: 80 g/ha, visual scoring after about 3 weeks vs untreated controls
# Description: Seeds of monocotyledonous and dicotyledonous weed plants and crop plants are placed in plastic or organic planting pots and covered with soil. […] After about 3 weeks, the effect of the preparations is scored visually in comparison with untreated controls as percentages. […]
Report the figure in % without appending any unit label.

Consider the reported Pre-emergence action against AVEFA in % for these compounds:
[[record]]
smiles_string = "O=C(O)COc1nn(-c2ccccn2)c(-c2cncc(F)c2)c1Br"
measured_value = 80

[[record]]
smiles_string = "CCOC(=O)[C@@H](C)Oc1nn(-c2ncccc2F)c(-c2ccc(F)nc2)c1Br"
measured_value = 80


Prompt: Name the recorded Pre-emergence action against AVEFA in % of the item `CCOC(=O)COc1nn(-c2ccccn2)c(-c2ccc(F)nc2)c1Cl` in your answer.
Completion: 80

Prompt: Name the recorded Pre-emergence action against AVEFA in % of the item `COC(=O)[C@@H](C)Oc1nn(-c2ncccc2F)c(-c2ccc(F)nc2)c1C(F)(F)F` in your answer.
Completion: 100
